Tested on: VDR:RXRa (NR concentration 270 nM, RXRa partner concentration 90 nM)
Assay: PBM binding z-score (relative to random genomic background probes); higher = stronger binding; sequences stand for … in GC…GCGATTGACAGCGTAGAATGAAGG
MEASUREMENT KIND: PBM binding z-score
// keep it numeric: no unit symbol after the value

Answered examples (5):
{"columns": ["SEQ", "RESULT"],
 "data": [
  ["TCTTGTTGATCAGCAGGTTAAGAAAGCTGGCCAA", 0.36],
  ["AGAATGAGGTTATTATGATCAGGGAATTGCGGTC", 1.65],
  ["AGAATCAGGTTATACGTAGATCAGGGAAGAAAGT", 0.368],
  ["TCAAATAGGTAATACAGGTGAAAGTCGGCATCTA", 1.28],
  ["ACTAGCCGGCCAAGGGTCACTCAAGATTAGTCCG", 2.59]
]}

Just so you know, measured PBM binding z-score for ACGTACGGGTCAACGAGGTTATAGCACGCGTATA came out at 7.49

Just so you know, measured PBM binding z-score for CTCGAAAGATCGGTTGAGGTGAGTATACGGATAA came out at -0.152

Just so you know, measured PBM binding z-score for AGAACGAGGGCACGCTGAGTTGATAGAAGAGTAG came out at 2.26

Just so you know, measured PBM binding z-score for ATCTCTAGGTAAAGAAAGTTCAGTGAATGCAAAT came out at 2.17

Just so you know, measured PBM binding z-score for CGTCAAAGTTCAACTAGGGTAACGTAAAGCACGC came out at 5.28

Just so you know, measured PBM binding z-score for TCGTGTAGATCAAAGGTTAAGAAAGCCGAAGCCT came out at 1.45

Just so you know, measured PBM binding z-score for GTACCAAGCTGAATAGGTCGTTGATGAGTAGGCG came out at -0.239

###

Tested on: PPARg:RXRa (NR concentration 180 nM, RXRa partner concentration 90 nM)
Assay: PBM binding z-score (relative to random genomic background probes); higher = stronger binding; sequences stand for … in GC…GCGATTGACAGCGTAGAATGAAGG
Entries and their PBM binding z-score values follow.
// keep it numeric: no unit symbol after the value

Just so you know, measured PBM binding z-score for TCATATATGTAAAAGGTGAAAGTCGGTGTGGTAA came out at 5.15

Just so you know, measured PBM binding z-score for TCAGTCAGGTGAAGGTAACTCAGGTACGCAGTCG came out at 0.838

Just so you know, measured PBM binding z-score for ATCTCTAGGTAAGACTCAGGTCAGTGAAGAACGC came out at 0.296

Just so you know, measured PBM binding z-score for TATACAGGGTCAAAGGCCCGAGTACGAATGTCGA came out at 6.14

Just so you know, measured PBM binding z-score for TCATACAGGTAAATGCTAGGTGAAAGTCCGATCT came out at 0.609

Just so you know, measured PBM binding z-score for TCGAGTAGGTTAGGGTCATTCAGAATGGCGTCGA came out at 3.15

Just so you know, measured PBM binding z-score for TCATATAGGTCAATGCTAGGTGAAAGTCCGATCT came out at 5.86

Just so you know, measured PBM binding z-score for ACAGACAGGAGATGAAGGTAACTCAGGCTATCAT came out at 0.816

Sourced from the supplement of paper PMC6555819
